# assayedTarget: T1, CAPRIN-1 protein expressed on the membrane surface of human cancer cells (human, UniProt Q14444 2-709)
# T1 sequence (looked up): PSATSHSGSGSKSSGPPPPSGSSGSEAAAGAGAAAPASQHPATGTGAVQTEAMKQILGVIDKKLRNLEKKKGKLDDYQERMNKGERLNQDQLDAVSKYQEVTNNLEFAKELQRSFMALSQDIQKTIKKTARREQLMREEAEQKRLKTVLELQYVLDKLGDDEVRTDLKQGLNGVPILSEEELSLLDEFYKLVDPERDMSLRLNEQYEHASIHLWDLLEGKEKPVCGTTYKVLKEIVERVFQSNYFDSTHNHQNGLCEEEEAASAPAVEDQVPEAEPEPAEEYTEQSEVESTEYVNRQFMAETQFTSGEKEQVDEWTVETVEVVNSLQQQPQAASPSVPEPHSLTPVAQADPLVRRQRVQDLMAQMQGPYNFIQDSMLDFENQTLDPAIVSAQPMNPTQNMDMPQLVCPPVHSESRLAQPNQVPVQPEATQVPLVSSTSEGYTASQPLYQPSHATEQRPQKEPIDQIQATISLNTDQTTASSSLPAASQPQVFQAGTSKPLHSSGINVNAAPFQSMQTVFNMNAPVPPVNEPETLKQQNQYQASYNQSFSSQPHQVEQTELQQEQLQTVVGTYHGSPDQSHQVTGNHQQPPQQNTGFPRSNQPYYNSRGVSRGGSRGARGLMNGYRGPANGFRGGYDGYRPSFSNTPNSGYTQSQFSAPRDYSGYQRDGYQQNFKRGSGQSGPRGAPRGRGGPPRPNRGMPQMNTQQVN
# protocolDescription: cell-based or functional assay
Attribute: ADCC cytotoxic activity (51Cr release) on TT
propertyLabel: ADCC cytotoxic activity (51Cr release) on TT

[[record]]
binder = "humanized antibody #3 (antibody, V domains shown) VH: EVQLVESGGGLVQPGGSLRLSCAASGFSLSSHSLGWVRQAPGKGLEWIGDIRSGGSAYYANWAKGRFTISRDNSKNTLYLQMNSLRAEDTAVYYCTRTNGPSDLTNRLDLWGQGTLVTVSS VL: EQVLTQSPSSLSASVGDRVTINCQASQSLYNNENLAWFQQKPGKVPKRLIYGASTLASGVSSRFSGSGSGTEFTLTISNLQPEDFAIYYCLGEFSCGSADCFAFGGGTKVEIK"
datavalue = "≥ 35%"

[[record]]
binder = "humanized antibody #9 (antibody, V domains shown) VH: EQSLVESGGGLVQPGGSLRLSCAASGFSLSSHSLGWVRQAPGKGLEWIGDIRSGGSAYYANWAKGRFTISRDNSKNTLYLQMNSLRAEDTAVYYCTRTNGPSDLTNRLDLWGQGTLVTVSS VL: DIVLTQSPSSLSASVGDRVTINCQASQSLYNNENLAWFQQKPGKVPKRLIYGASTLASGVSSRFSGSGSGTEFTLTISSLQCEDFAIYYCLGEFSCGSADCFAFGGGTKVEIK"
datavalue = "≥ 30%"

[[record]]
binder = "humanized antibody #0 (antibody, V domains shown) VH: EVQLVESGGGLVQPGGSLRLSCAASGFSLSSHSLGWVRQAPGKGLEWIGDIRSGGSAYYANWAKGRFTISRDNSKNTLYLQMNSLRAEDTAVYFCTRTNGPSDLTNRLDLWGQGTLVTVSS VL: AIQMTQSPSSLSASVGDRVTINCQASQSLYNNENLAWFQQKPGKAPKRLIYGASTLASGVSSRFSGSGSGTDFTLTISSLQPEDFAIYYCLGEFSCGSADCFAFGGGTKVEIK"
datavalue = "≥ 30%"

